src = patent US5380825A

test system: antisera to AZT, Rabbit 2 (immunized with AZT-3-V:BSA); test: FPIA comparison of tracers, antiserum of Rabbit 2 (Table 1); type: binding; details: concentration of AZT giving 50% reduction in polarization of this tracer relative to 0 tube
I'd appreciate it if you could supply ED50 AZT values for the items below.
Answers are plain numbers, in mg/L.

Use these answered entries as a reference point.
>>> measured_value("Cc1cn([C@H]2C[C@H](N=[N+]=[N-])[C@@H](CO)O2)c(=O)n(CC(=O)Nc2ccc3c(c2)C(=O)OC32c3ccc(O)cc3Oc3cc(O)ccc32)c1=O")
2.0
>>> measured_value("Cc1cn([C@H]2C[C@H](N=[N+]=[N-])[C@@H](CO)O2)c(=O)n(CCCNC(=S)Nc2ccc3c(c2)C(=O)OC32c3ccc(O)cc3Oc3cc(O)ccc32)c1=O")
4.0
>>> measured_value("Cc1cn([C@H]2C[C@H](N=[N+]=[N-])[C@@H](CO)O2)c(=O)n(CCNC(=S)Nc2ccc3c(c2)C(=O)OC32c3ccc(O)cc3Oc3cc(O)ccc32)c1=O")
2.9

API: the following record is the query input.
[Q] I am curious: what ED50 AZT value has been reported for Cc1cn([C@H]2C[C@H](N=[N+]=[N-])[C@@H](CO)O2)c(=O)n(CCCC(=O)NCCNC(=S)Nc2ccc3c(c2)C(=O)OC32c3ccc(O)cc3Oc3cc(O)ccc32)c1=O ?
[A] 4.0
